Data credit: the RNAGym collection of RNA variant scans (doi:10.7554/elife.90254)

B1: LINE1-mini (parent)
chain: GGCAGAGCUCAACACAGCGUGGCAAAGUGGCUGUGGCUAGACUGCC

Variants of: B1
Experiment: self-cleavage, relative activity (ratio to wild type); higher = more cleavage; in vitro, sequencing; the parent is a self-cleaving ribozyme
Outcome: Yes for self-cleavage of at least 0.2; No for anything lower.

INPUT: Evaluate C23G U38C : self-cleavage at minimum 0.2?
OUTPUT: Yes

INPUT: // inclusive: self-cleavage at least 0.2? input: U9A G35A
OUTPUT: No

INPUT: Is self-cleavage at least 0.2? Consider C10A C13G
OUTPUT: No

INPUT: Record U32G G33A ; criterion: self-cleavage no lower than 0.2. Met?
OUTPUT: No

INPUT: Determine whether this variant has self-cleavage no lower than 0.2: A14C A24C
OUTPUT: No

INPUT: Say whether C8U U43C shows self-cleavage of 0.2 or more.
OUTPUT: No

INPUT: Could you verify whether the entry A26C G27C shows self-cleavage of no less than 0.2?
OUTPUT: Yes

INPUT: # check: self-cleavage of C10G G22U is greater than or equal to 0.2
OUTPUT: No

INPUT: # bool: self-cleavage of U32A G35U >= 0.2
OUTPUT: No

INPUT: # check: self-cleavage of A6U G33U is greater than or equal to 0.2
OUTPUT: No

INPUT: Could you please find out whether G19C C37U has self-cleavage that meets 0.2 or exceeds it?
OUTPUT: No
